Property: pIC50; scope: individual compounds
Target: chimeric receptor containing the EGFR extracellular domain and the HER2 intracellular kinase domain (Homo sapiens)
Construct: P00533 (Epidermal growth factor receptor)
Sequence (P04626 720-1255 limits assumed, change not shown): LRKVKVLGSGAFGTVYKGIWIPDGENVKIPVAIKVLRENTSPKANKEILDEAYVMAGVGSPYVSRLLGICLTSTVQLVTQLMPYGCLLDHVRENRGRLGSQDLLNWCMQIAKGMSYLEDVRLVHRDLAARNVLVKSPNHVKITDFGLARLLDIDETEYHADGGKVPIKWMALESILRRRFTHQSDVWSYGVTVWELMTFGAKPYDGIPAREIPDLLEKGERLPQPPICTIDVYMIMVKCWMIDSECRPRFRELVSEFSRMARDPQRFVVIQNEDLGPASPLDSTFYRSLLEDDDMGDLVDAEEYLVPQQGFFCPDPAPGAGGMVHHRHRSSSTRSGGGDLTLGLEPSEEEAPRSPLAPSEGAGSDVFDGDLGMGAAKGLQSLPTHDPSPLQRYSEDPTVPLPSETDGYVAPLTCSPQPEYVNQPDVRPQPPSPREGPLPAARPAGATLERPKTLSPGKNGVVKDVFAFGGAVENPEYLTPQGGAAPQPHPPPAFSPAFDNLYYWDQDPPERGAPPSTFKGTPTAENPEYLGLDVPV
Assay: EGFR-HER2 chimeric receptor whole cell kinase assay (E/HER2-3T3)
Conditions: Table VI, cellular kinase assay
pIC50: −log10 of the molar value.

Solved cases below.
| SMILES_STRUCTURE | OBSERVED_MEASUREMENT |
| --- | --- |
| CC(C)c1cc(/C=C(\C#N)C(=O)NCCCc2ccccc2)cc(C(C)C)c1O | < 4.00 |
| CC(C)c1cc(C=C(C#N)C(N)=C(C#N)C#N)cc(C(C)C)c1O | < 4.00 |
| CC(C)c1cc(/C=C(\C#N)S(=O)(=O)c2ccccc2)cc(C(C)C)c1O | 4.74 |

// switching to the query compound
Lookup: Fill in the blank: the reported pIC50 of "CC(C)(C)c1cc(/C=C(\C#N)S(=O)(=O)c2ccccc2)cc(C(C)(C)C)c1O" is ____.
Found: < 4.00

###

Tested on: MCF7 cells overexpress the HER2 kinase (MCF7-HER2)
Test: MCF-7/HER-2 SRB growth assay
Format: cell-based, human
Conditions: Table VI, 0.5% FBS, four days
Procedure: This example illustrates the ability of the exemplary compounds to inhibit receptor tyrosine kinases, such as HER2 and/or EGFR. […] Four days following dosing of compound, the media is discarded and 200 μl/well of ice-cold 10% TCA (Trichloroacetic Acid) is added to fix cells. […] After 5 to 10 minutes, the plate is read on a Dynatech ELISA Plate Reader at dual wavelengths at 570 nm and 630 nm. […]
MEASURE_NAME: IC50

Lookup: Fill in the blank: the reported IC50 of Cc1cc(/C=C(\C#N)S(=O)(=O)/C(C#N)=C/c2cc(C)c(O)c(C)c2)cc(C)c1O [Compound M38] is ____.
Found: > 100 µM

###

Biological target: HER2 (Homo sapiens, UniProt P04626)
Construct: the human mammary carcinoma line BT474 (ATCC HTB2) expressing HER2; endogenous in cells; host or cells: BT474 human mammary carcinoma cells
Sequence (P04626 23-1255): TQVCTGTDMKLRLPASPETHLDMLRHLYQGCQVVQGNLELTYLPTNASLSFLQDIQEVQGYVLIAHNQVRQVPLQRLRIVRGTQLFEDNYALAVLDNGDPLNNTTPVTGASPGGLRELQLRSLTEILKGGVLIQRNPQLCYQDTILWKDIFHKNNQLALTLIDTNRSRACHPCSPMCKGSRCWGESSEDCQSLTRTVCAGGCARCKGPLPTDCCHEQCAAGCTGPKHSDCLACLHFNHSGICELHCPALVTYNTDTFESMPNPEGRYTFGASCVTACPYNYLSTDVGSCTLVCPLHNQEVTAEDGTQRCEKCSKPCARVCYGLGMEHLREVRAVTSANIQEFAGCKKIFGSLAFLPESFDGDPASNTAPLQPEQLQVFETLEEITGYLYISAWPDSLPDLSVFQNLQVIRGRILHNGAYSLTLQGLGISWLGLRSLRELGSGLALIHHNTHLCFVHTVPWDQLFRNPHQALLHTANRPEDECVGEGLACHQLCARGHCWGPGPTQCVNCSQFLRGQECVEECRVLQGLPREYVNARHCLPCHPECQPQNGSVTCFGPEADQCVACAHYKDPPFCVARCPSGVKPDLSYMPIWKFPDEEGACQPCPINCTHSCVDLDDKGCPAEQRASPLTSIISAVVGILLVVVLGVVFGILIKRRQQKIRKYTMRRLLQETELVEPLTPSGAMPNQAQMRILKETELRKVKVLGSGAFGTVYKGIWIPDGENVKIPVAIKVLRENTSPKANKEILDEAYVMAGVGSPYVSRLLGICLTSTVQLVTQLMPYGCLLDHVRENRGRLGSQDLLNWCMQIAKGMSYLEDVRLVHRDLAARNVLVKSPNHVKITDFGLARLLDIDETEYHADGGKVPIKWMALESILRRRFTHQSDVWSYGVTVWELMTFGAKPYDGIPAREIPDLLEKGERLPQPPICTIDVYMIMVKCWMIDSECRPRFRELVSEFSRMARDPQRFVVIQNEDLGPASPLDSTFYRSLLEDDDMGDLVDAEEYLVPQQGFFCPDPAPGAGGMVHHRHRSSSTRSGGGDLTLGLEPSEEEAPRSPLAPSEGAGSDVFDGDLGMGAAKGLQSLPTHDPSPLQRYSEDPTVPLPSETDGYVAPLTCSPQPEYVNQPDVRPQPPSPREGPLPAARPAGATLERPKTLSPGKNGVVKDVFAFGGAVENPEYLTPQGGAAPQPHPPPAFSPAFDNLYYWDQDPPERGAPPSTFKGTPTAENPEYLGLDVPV
Assay: HER2-BT474 whole cell kinase ELISA
Type: cell-based
Conditions: Table V; read-out: Estimated IC50 Cellular Kinase Assays HER2 (BT474)
MEASURE_NAME: pIC50
Answer as the number alone; pIC50 is minus log10 of concentration in mol/L.

Solved cases below.
| MOLECULE | pIC50 |
| --- | --- |
| N#C/C(=C\c1ccc(O)c(O)c1)C(=S)NCc1ccccc1 | 4.85 |
| CC(C)(C)c1cc(C=C(C#N)c2[nH]nc(N)c2C#N)cc(C(C)(C)C)c1O | 5.07 |
| N#C/C(=C\c1ccc(O)c(O)c1)C(=O)NCCCCc1ccccc1 | 4.51 |
| COc1cc2ncnc(Nc3cccc(Cl)c3)c2cc1OC [Compound P13a] | 5.80 |

// switching to the query molecule
Lookup: Fill in the blank: the reported pIC50 of "Cc1cc2nc(CBr)c(-c3ccccc3)nc2cc1C" is ____.
Found: 4.68

###

Target: HER2 (Homo sapiens)
Construct: the human mammary carcinoma line BT474 (ATCC HTB2) expressing HER2; endogenous in cells; host or cells: BT474 human mammary carcinoma cells
Test: HER2-BT474 whole cell kinase ELISA
Assay type: cell-based
Conditions: Table VI, cellular kinase assay; read-out: HER2-BT474
MEASURE_NAME: log10 of IC50 (log10 of the value in µM)
Field: value | Transform: log10 | Quantity: IC50 | Unit: µM

Solved cases below.
| SMILES_STRUCTURE | log10 of IC50 |
| --- | --- |
| CC(C)(C)c1cc(/C=C(\C#N)C(N)=S)cc(C(C)(C)C)c1O | 0.49 |
| Cc1cc(/C=C(\C#N)S(=O)(=O)/C(C#N)=C/c2cc(C)c(O)c(C)c2)cc(C)c1O | 1.15 |
| CC(C)c1cc(/C=C(\C#N)C(=O)Nc2ccc(C(F)(F)F)cc2)cc(C(C)C)c1O | 0.34 |
| Cc1cc(/C=C(\C#N)S(=O)(=O)c2ccccc2)cc(C)c1O | 0.73 |

Lookup: Fill in the blank: the reported log10 of IC50 of "CC(C)(C)c1cc(/C=C(\C#N)S(=O)(=O)CC#N)cc(C(C)(C)C)c1O" is ____.
Found: -0.40

Lookup: Fill in the blank: the reported log10 of IC50 of "N#C/C(=C\c1cc(O)c(O)c(I)c1)C(=O)NCc1ccccc1" is ____.
Found: 1.41

Lookup: Fill in the blank: the reported log10 of IC50 of "CC(C)c1cc(/C=C(\C#N)C(=O)NCCCc2ccccc2)cc(C(C)C)c1O" is ____.
Found: 0.87

Lookup: Fill in the blank: the reported log10 of IC50 of "Cc1cc(/C=C(\C#N)S(=O)(=O)c2ccccn2)cc(C)c1O" is ____.
Found: 0.86

Lookup: Fill in the blank: the reported log10 of IC50 of "CC(C)c1cc(/C=C(\C#N)S(=O)(=O)c2ccccc2)cc(C(C)C)c1O" is ____.
Found: -0.19

Lookup: Fill in the blank: the reported log10 of IC50 of "CC(C)c1cc(/C=C(\C#N)S(=O)(=O)/C(C#N)=C/c2cc(C(C)C)c(O)c(C(C)C)c2)cc(C(C)C)c1O" is ____.
Found: 0.15

Lookup: Fill in the blank: the reported log10 of IC50 of "N#C/C(=C\c1cc(O)c(O)c(I)c1)C(=O)NCCCc1ccccc1" is ____.
Found: 1.41

Lookup: Fill in the blank: the reported log10 of IC50 of "CC(C)c1cc(/C=C(\C#N)S(=O)(=O)CC#N)cc(C(C)C)c1O" is ____.
Found: 0.66

Lookup: Fill in the blank: the reported log10 of IC50 of "CC(C)(C)c1cc(/C=C(\C#N)S(=O)(=O)c2ccccn2)cc(C(C)(C)C)c1O" is ____.
Found: -0.96

Lookup: Fill in the blank: the reported log10 of IC50 of "CC(C)c1cc(C=C(C#N)C(N)=C(C#N)C#N)cc(C(C)C)c1O" is ____.
Found: 0.62

Lookup: Fill in the blank: the reported log10 of IC50 of "CC(C)(C)c1cc(/C=C(\C#N)C(=O)Nc2ccc(C(F)(F)F)cc2)cc(C(C)(C)C)c1O" is ____.
Found: -0.54

Lookup: Fill in the blank: the reported log10 of IC50 of "N#C/C(=C\c1ccc([N+](=O)[O-])c(O)c1)C(=O)NCCCc1ccccc1" is ____.
Found: 1.59

###

Property: IC50; scope: individual compounds
Molecular target: human EGF receptor (Homo sapiens)
Construct: expressed in transfected cells; host or cells: NIH3T3 clone C7 (EGFR/C7; mouse fibroblasts)
Sequence (P00533 25-1210): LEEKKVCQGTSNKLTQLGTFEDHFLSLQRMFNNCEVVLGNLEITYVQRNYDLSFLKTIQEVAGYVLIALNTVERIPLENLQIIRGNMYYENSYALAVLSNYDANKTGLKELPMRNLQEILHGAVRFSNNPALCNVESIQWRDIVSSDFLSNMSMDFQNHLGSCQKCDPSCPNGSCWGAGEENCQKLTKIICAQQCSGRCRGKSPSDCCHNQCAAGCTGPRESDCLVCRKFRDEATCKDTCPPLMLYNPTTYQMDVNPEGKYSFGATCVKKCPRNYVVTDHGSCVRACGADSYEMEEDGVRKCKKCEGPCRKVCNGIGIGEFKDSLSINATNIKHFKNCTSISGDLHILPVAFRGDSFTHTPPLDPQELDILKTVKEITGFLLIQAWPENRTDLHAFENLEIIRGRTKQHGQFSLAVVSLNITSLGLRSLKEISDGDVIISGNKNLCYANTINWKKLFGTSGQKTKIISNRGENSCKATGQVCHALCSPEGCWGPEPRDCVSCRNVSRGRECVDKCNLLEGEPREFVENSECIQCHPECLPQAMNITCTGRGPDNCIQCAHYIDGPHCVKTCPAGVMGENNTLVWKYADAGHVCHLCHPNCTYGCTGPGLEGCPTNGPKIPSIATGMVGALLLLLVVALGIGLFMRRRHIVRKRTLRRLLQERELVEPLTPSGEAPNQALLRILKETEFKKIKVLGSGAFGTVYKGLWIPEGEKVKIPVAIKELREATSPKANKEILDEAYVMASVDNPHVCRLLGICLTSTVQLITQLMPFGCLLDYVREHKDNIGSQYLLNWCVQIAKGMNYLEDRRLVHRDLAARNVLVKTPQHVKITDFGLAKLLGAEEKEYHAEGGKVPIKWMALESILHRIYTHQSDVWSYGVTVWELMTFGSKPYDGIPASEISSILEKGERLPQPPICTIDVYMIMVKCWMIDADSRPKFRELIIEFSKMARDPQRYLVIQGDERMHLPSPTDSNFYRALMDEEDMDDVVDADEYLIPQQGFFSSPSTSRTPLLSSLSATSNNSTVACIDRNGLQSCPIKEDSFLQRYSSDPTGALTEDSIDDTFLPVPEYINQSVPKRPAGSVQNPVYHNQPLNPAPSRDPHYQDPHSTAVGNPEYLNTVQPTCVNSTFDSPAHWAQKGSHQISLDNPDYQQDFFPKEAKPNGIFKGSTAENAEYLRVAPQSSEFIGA
Assay: EGF-receptor whole cell kinase assay (EGFR-3T3)
Type: cell-based
Settings: Table V; read-out: Estimated IC50 Cellular Kinase Assays EGFR (EGF-3T3)
Just the number please, in µM, no unit attached.

| COMPOUND | IC50 (µM) |
| --- | --- |
| Cc1cc2nc(CBr)c(-c3ccccc3)nc2cc1C [Compound R9] | 35.5 |

// switching to the query compound
Lookup: Fill in the blank: the reported IC50 of Cc1ccc2ncnc(Nc3ccc4c(c3)OCO4)c2c1 [Compound P14b] is ____.
Found: 20.9

###

Property: IC50; scope: individual compounds
Molecular target: HER2 (Homo sapiens, UniProt P04626)
Construct: the human mammary carcinoma line BT474 (ATCC HTB2) expressing HER2; endogenous in cells; host or cells: BT474 human mammary carcinoma cells
Test: HER2-BT474 whole cell kinase ELISA
Format: cell-based
Details: Table V; read-out: Estimated IC50 Cellular Kinase Assays HER2 (BT474)
Description: HER2-BT474 assays measuring whole cell HER2 activity was carried out as described below: All the following steps are at room temperature and aseptically, unless stated otherwise. All ELISA plate washing is by rinsing with distilled water three times and once with TBST. Incubate the cells in 5% CO2 at 37° C. overnight. 2. ELISA Plate Coating and Blocking
Just the number please, in µM, no unit attached.

Solved cases below.
| COMPOUND | IC50 (µM) |
| --- | --- |
| Cc1ccc2ncnc(Nc3cccc(Cl)c3)c2c1 [Compound P12a] | 7.14 |
| N#C/C(=C\c1ccc(O)c(O)c1)C(=O)Nc1cccc(C(F)(F)F)c1 | 16 |

// switching to the query compound
Lookup: Fill in the blank: the reported IC50 of "Clc1cc2ncc(-c3ccccc3)nc2cc1Cl" is ____.
Found: 25

###

Property: pIC50; scope: individual compounds
Molecular target: human EGF receptor (Homo sapiens)
Construct: expressed in transfected cells; host or cells: NIH3T3 clone C7 (EGFR/C7; mouse fibroblasts)
Assay: EGF-receptor whole cell kinase assay (EGFR-3T3)
Type: cell-based
Details: Table V; read-out: Estimated IC50 Cellular Kinase Assays EGFR (EGF-3T3)
Answer as the number alone; pIC50 is minus log10 of concentration in mol/L.

| COMPOUND | TARGET_SYSTEM | pIC50 |
| --- | --- | --- |
| N#CC(C#N)=Cc1cc(O)c(O)c(I)c1 | human EGF receptor (Homo sapiens) | 4.87 |
| CC(C)(C)c1cc(C=C(C#N)C#N)cc(Br)c1O | human EGF receptor (Homo sapiens) | 4.43 |
| CC(C)(C)c1cc(C=C(C#N)c2[nH]nc(N)c2C#N)cc(C(C)(C)C)c1O | human EGF receptor (Homo sapiens) | 5.06 |

Lookup: Fill in the blank: the reported pIC50 of Cc1ccc2ncnc(Nc3ccc4c(c3)OCO4)c2c1 [Compound P14a] is ____.
Found: 4.65

Lookup: Fill in the blank: the reported pIC50 of "CC(C)(C)c1cc(/C=C(\C#N)C(N)=S)cc(C(C)(C)C)c1O" is ____.
Found: 4.40

Lookup: Fill in the blank: the reported pIC50 of "Clc1cc2ncc(-c3ccccc3)nc2cc1Cl" is ____.
Found: 4.60

Lookup: Fill in the blank: the reported pIC50 of "Cc1cc2nc3c(nc2cc1C)-c1ccccc1C3=O" is ____.
Found: 4.60

Lookup: Fill in the blank: the reported pIC50 of Cc1ccc2ncnc(Nc3cccc(Cl)c3)c2c1 [Compound P12a] is ____.
Found: 7.40

Sourced from patent US6596878B2
